The reported measurements were obtained from patent US20240066027A1.

PARAMETER: melting point

Use the examples below as a reference point.
>>> result("COc1cc(-n2nc(C(C)(C)C)c3nc(C(=O)N4CCN(c5cc(C)c(C(=O)O)c(C)n5)CC4(C)C)ccc32)ccc1Cl [Example 60]")
"127 to 139 °C"
>>> result("CC(C)Cn1cc(-c2ccc(N(C)C)nc2)c2ccc(C(=O)N3CCNC(=O)C3(C)C)nc21 [Example 109]")
"205 to 210 °C"
>>> result("CC(C)Cc1nn(-c2ccc(OC(F)(F)F)cc2)c2ccc(C(=O)N3CCNC(=O)C3(C)C)nc12 [Example 79]")
"185 to 187 °C"
>>> result("COc1ccc(-c2cn(CC(C)C)c3nc(C(=O)N4CCNC(=O)C4(C)C)ccc23)cc1 [Example 111]")
"195 to 200 °C"
>>> result("CC(C)Cn1cc(C2=CCNCC2)c2ccc(C(=O)N3CCNC(=O)C3(C)C)nc21 [Example 47]")
"140 to 145 °C"

O=C(c1cc2c(cn1)c(-c1ccc(Cl)c(F)c1)nn2CC(F)(F)F)N1CC2CCC(C1)O2 [Example 90] has a reported melting point of 198 to 200 °C

CC(C)Cn1cc(-c2ccccc2)c2ccc(C(=O)N3CCNC(=O)C3(C)C)nc21 [Example 49] has a reported melting point of 175 to 178 °C

COc1ccc(-n2nc(CC(C)C)c3nc(C(=O)N4CCNC(=O)C4(C)C)ccc32)cn1 [Example 92] has a reported melting point of 189 to 192 °C

CC(C)Cn1cc(C2CCCCC2)c2ccc(C(=O)N3CCNC(=O)C3(C)C)nc21 [Example 48] has a reported melting point of 226 to 229 °C

COc1ccc(-n2nc(CC(C)C)c3nc(C(=O)N4CCNC(=O)C4(C)C)ccc32)cc1 [Example 93] has a reported melting point of 182 to 185 °C

###

Documented melting point across a set of compounds

>>> result("CC(C)Cn1cc(-c2ccc(C(F)(F)F)cc2)c2ccc(C(=O)N3CCNC(=O)C3(C)C)nc21")
"216 to 218 °C"
>>> result("CC(C)Cc1nn(-c2ccc(C(F)(F)F)nc2)c2ccc(C(=O)N3CCNC(=O)C3(C)C)nc12")
"185 to 190 °C"
>>> result("CC(C)Cn1cc(C2=CCOCC2)c2ccc(C(=O)N3CCNC(=O)C3(C)C)nc21")
"225 to 230 °C"

"Cc1ccc(-c2cn(CC(C)C)c3nc(C(=O)N4CCNC(=O)C4(C)C)ccc23)cc1" has a reported melting point of 207 to 212 °C

"CC(C)Cn1cc(-c2ccncc2)c2ccc(C(=O)N3CCNC(=O)C3(C)C)nc21" has a reported melting point of 200 to 210 °C

"CC(C)Cn1cc(-c2ccc(C(F)(F)F)nc2)c2ccc(C(=O)N3CCNC(=O)C3(C)C)nc21" has a reported melting point of > 250 °C

"CC(C)Cn1cc(-c2ccc(C#N)nc2)c2ccc(C(=O)N3CCNC(=O)C3(C)C)nc21" has a reported melting point of 260 to 265 °C

"CC(C)Cn1cc(-c2cnn(C)c2)c2ccc(C(=O)N3CCNC(=O)C3(C)C)nc21" has a reported melting point of > 250 °C

"CC(C)Cn1cc(-c2cncnc2)c2ccc(C(=O)N3CCNC(=O)C3(C)C)nc21" has a reported melting point of 185 to 190 °C

"CC(C)Cn1cc(N2CCCCC2)c2ccc(C(=O)N3CCNC(=O)C3(C)C)nc21" has a reported melting point of 233 to 237 °C

###

# TARGET DESC: human PAR-2 (hPAR-2) receptor expressed in HEK-293 T cells in an endogenous manner (Homo sapiens, UniProt P55085)
# Construct: human PAR-2 (hPAR-2) receptor expressed in HEK-293 T cells in an endogenous manner; endogenous in cells
# Sequence (P55085 26-397): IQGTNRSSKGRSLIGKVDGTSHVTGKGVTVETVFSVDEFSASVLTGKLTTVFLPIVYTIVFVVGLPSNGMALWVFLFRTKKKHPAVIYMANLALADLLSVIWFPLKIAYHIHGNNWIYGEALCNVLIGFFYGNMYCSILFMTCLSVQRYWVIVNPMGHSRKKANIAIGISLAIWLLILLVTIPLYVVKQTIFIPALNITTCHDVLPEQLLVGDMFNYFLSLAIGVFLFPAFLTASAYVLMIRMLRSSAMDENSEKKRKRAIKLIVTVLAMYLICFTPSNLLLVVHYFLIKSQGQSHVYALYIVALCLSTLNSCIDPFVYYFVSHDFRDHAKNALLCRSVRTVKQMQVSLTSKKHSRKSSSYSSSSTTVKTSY
# TEST METHOD NOTES: In vitro human PAR-2 functional antagonist activity using calcium assays (Fluo4AM, FLIPR Tetra)
# CONDITION CONTEXT: HEK-293 T cells stimulated by an EC80 of the 2-Furoyl-LIGRLO-NH2 peptide after 10 min incubation with compound; 20 concentrations, duplicate, two independent experiments
# Protocol: In vitro human PAR-2 functional antagonist activity using calcium assays […] Calcium assay: Receptor activity was detected by changes in intracellular calcium measured using the fluorescent Ca^2+ sensitive dye, Fluo4AM (Molecular Probes). […] Agonist and antagonist activities of compounds were consecutively evaluated on the same cell plate. Agonist activity was first measured after 10 min incubation with the compound alone. […]
PARAMETER: IC50

>>> result("Cc1cc(N2CCN(C(=O)c3ccc4c(-c5ccc(Cl)c(F)c5)cn(CC5(C)CCOCC5)c4n3)C(C)(C)C2)nc(C)c1C(=O)O")
"< 20 nM"
>>> result("Cc1cc(N2CCCN(C(=O)c3ccc4c(-c5ccc(Cl)c(F)c5)cn(C(C)(C)C)c4n3)CC2)nc(C)c1C(=O)O")
"20 to 10000 nM"
>>> result("Cc1cc2c(nc1C(=O)N1CCNC(=O)C1(C)C)c(CC(C)C)nn2-c1ccc(Cl)c(F)c1")
"> 10000 nM"
>>> result("COc1cccc(Cn2cc(-c3ccc(Cl)c(F)c3)c3ccc(C(=O)N4CCN(c5cc(C)c(C(=O)O)c(C)n5)CC4(C)C)nc32)n1")
"< 20 nM"
>>> result("CC1(C)C(=O)N(CC(=O)N2CCOCC2)CCN1C(=O)c1ccc2c(-c3ccc(Cl)c(F)c3)cn(C(C)(C)C)c2n1")
"< 20 nM"
>>> result("Cc1cc(N(C)[C@H]2CCN(C(=O)c3ccc4c(-c5ccc(Cl)c(F)c5)cn(C(C)(C)C)c4n3)C2)nc(C)c1C(=O)O")
"20 to 10000 nM"
>>> result("Cc1cc(N2CCN(C(=O)c3ccc4c(-c5ccc(Cl)c(F)c5)cn(CC(C)C)c4n3)C(C)(C)C2)nc(C)c1C(=O)O")
"< 20 nM"
>>> result("CC(C)(C)n1cc(-c2ccc(Cl)c(F)c2)c2ccc(C(=O)N3CC4(CCOC4)C3)nc21")
"> 10000 nM"

Next:
"CC(C)Cc1nn(-c2ccc(Cl)c(F)c2)c2ccc(C(=O)N3CCNC(=O)C3)nc12" has a reported IC50 of > 10000 nM

###

# TARGET DESC: human PAR-2 (hPAR-2) receptor expressed in HEK-293 T cells in an endogenous manner (Homo sapiens)
# Construct: human PAR-2 (hPAR-2) receptor expressed in HEK-293 T cells in an endogenous manner; endogenous in cells
# TEST METHOD NOTES: In vitro human PAR-2 functional antagonist activity using calcium assays (Fluo4AM, FLIPR Tetra)
# CONDITION CONTEXT: HEK-293 T cells stimulated by an EC80 of the 2-Furoyl-LIGRLO-NH2 peptide after 10 min incubation with compound; 20 concentrations, duplicate, two independent experiments
Documented IC50 across a set of compounds

Use the examples below as a reference point.
>>> result("COCCn1cc(-c2ccc(Cl)c(F)c2)c2ccc(C(=O)N3CCN(c4cc(C)c(C(=O)O)c(C)n4)CC3(C)C)nc21 [Example 134]")
"< 0.02 µM"
>>> result("Cc1cc2c(-c3ccc(Cl)c(F)c3)cn(CC(C)C)c2nc1C(=O)N1CCN(c2cc(C)c(C(=O)O)c(C)n2)CC1 [Example 186]")
"> 10 µM"
>>> result("CC(C)(C)n1cc(-c2ccc(Cl)c(F)c2)c2ccc(C(=O)N3C[C@@H]4[C@@H](CC(=O)O)[C@@H]4C3)nc21 [Example 124]")
"< 0.02 µM"
>>> result("COc1cc(-n2nc(C(C)(C)C)c3nc(C(=O)N4CCN(c5cc(C)c(C(=O)O)c(C)n5)CC4(C)C)ccc32)ccc1Cl [Example 60]")
"> 10 µM"
>>> result("Cc1cc(N2CCN(C(=O)c3ccc4c(-c5ccc(Cl)c(F)c5)cn(Cc5ccncc5)c4n3)C(C)(C)C2)nc(C)c1C(=O)O [Example 149]")
"0.02 to 10 µM"

CN1CCN(C(=O)c2ccc3c(-c4ccc(Cl)c(F)c4)cn(C(C)(C)C)c3n2)C(C)(C)C1=O [Example 2] has a reported IC50 of < 0.02 µM

Cc1cc(N2CCN(C(=O)c3ccc4c(-c5ccc(Cl)c(F)c5)cn(Cc5ncco5)c4n3)C(C)(C)C2)nc(C)c1C(=O)O [Example 173] has a reported IC50 of 0.02 to 10 µM

Cc1cc(N2CCN(C(=O)c3ccc4c(-c5ccc(Cl)c(F)c5)c(C)n(C)c4n3)C(C)(C)C2)nc(C)c1C(=O)O [Example 119] has a reported IC50 of 0.02 to 10 µM

CC(C)Cn1cc(C2=CCNCC2)c2ccc(C(=O)N3CCNC(=O)C3(C)C)nc21 [Example 47] has a reported IC50 of > 10 µM

Cc1cc(N(C)C2CCN(C(=O)c3ccc4c(-c5ccc(Cl)c(F)c5)cn(C(C)(C)C)c4n3)CC2C)nc(C)c1C(=O)O (mixture of isomers) [Example 199] has a reported IC50 of 0.02 to 10 µM
